Entry source: PubChem BioAssay (NCI)

# METHOD: NCI Yeast Anticancer Drug Screen. Data for the sgs1 mgt1 strain (AID 161);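 note: 0% = growth of cultures given vehicle only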
# ASSAY CONDITIONS: S. cerevisiae sgs1 mgt1 strain, at 50.0 µM, stronger effect = higher value
Compounds without any hit were thinned out: in the full panel of roughly 79,000, 15% have a hit. Activity calls are given as the source filed them. Cut-off read from the data, not from the text of the source: active = growth inhibition above about 70%; inactive = the rest.
PROPERTY LABEL: growth inhibition

COMPOUND: CC1(C)O[C@@H]2C[C@H]3[C@@H]4C[C@H](F)C5=CC(=O)C=C[C@]5(C)[C@@]4(F)[C@@H](O)C[C@]3(C)[C@]2(C(=O)CO)O1
growth inhibition: 0.25% (inactive)

COMPOUND: CCC/C=N/Nc1ccc([N+](=O)[O-])cc1[N+](=O)[O-]
growth inhibition: 0.3% (inactive)

COMPOUND: COc1cc(NCC(C#N)C#N)ccc1N=Nc1ccc([N+](=O)[O-])cc1
growth inhibition: 10.5% (inactive)

COMPOUND: CC(=O)C1=CCC(C(C)C)C1 (stereo not given)
growth inhibition: -1.2% (inactive)

Ask: Answer with the recorded growth inhibition for the compound listed here: O=C(O)C(O)c1c[nH]c2ccccc12 (stereo not given)
Result: -26.6% (inactive)

Ask: Answer with the recorded growth inhibition for the compound listed here: Oc1ccc(Br)cc1C=Nc1ccccc1
Result: 40.8% (inactive)

Ask: Answer with the recorded growth inhibition for the compound listed here: COC(=O)C(NC(=O)COc1ccccc1[N+](=O)[O-])C(=O)OC
Result: 0% (inactive)

Ask: Answer with the recorded growth inhibition for the compound listed here: CN1c2ccccc2Oc2ccc3ccccc3c21
Result: 0.95% (inactive)

Ask: Answer with the recorded growth inhibition for the compound listed here: CN(C)c1cc(-c2ccccc2)oc(=O)c1Cl
Result: -24.2% (inactive)

Ask: Answer with the recorded growth inhibition for the compound listed here: Oc1ccc(Cl)cc1/C=N/NC(=S)Nc1cccc2cccnc12
Result: 10.7% (inactive)

====

Below is a list of entries, each paired with its recorded growth inhibition value.
# METHOD: NCI Yeast Anticancer Drug Screen. Data for the cln2 rad14 strain (AID 165);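 note: 0% = growth equal to vehicle treated cultures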
# ASSAY CONDITIONS: S. cerevisiae cln2 rad14 strain, at 50.0 µM, stronger effect = higher value
Compounds without any hit were thinned out: in the full panel of roughly 79,000, 15% have a hit.
State the answer as a number, implicitly in %.

Please review the entries below; each comes with its answer.
COMPOUND: CN(C)c1ccc(C=C(c2ccc(N)cc2)c2ccc(N)cc2)cc1
UNIT: %
growth inhibition: -0.6
--
COMPOUND: CNC(=O)C(C)Oc1ccc(OCC2CCCCC2)cc1 (stereo not given)
UNIT: %
growth inhibition: -35.5

Ask: Answer with the recorded growth inhibition for the compound listed here: COc1ccc(N)c(C(=O)CCNC(C)=O)c1
Result: -7.05

Ask: Answer with the recorded growth inhibition for the compound listed here: CC(=O)SC12CCCN1C(=O)C1(SC(C)=O)CCCN1C2=O (stereo not given)
Result: -28.9

Ask: Answer with the recorded growth inhibition for the compound listed here: Nc1nc(N)c(N)c(Nc2ccc(Cl)cc2)n1
Result: 21.4

Ask: Answer with the recorded growth inhibition for the compound listed here: Cn1c2ccccc2c2nnc(N/N=C/c3cccs3)nc21
Result: -32.2

Ask: Answer with the recorded growth inhibition for the compound listed here: FC(F)(F)C[P+](c1ccccc1)(c1ccccc1)c1ccccc1
Result: 16.9

Ask: Answer with the recorded growth inhibition for the compound listed here: COc1ccc2nc3ccccc3c(NCCCN(C)C)c2c1
Result: 60.1

Ask: Answer with the recorded growth inhibition for the compound listed here: Cc1ccc(C)c(NC(=O)NC(C)C)c1
Result: -25.6

Ask: Answer with the recorded growth inhibition for the compound listed here: O=C(Cc1ccccc1)Nc1ccccc1
Result: -0.3

Ask: Answer with the recorded growth inhibition for the compound listed here: C/C(CC(N)=O)=C1\C(=O)NN(c2ccccc2)C1=O
Result: 7.3

Ask: Answer with the recorded growth inhibition for the compound listed here: CCCN=C1NS(=O)(=O)c2ccccc21
Result: -11.8

Ask: Answer with the recorded growth inhibition for the compound listed here: CCOc1ccccc1NC(=O)CC(C(=O)OC)C(=O)C(=O)OC (stereo not given)
Result: 20

Ask: Answer with the recorded growth inhibition for the compound listed here: O=C(Nc1ccc(Cl)c(Cl)c1)C(=O)C(C(=O)c1ccccc1-c1ccccc1)C1OC(=O)c2ccccc21 (stereo not given)
Result: -50.5

Ask: Answer with the recorded growth inhibition for the compound listed here: CCOC(=O)C(=CNc1cccc(N)n1)C(=O)OCC
Result: -8.55

Ask: Answer with the recorded growth inhibition for the compound listed here: CC(=O)N=C1CSc2ccccc2N1C
Result: -40.4

Ask: Answer with the recorded growth inhibition for the compound listed here: [O-][N+](CCO)(CCO)Cc1ccccc1
Result: 6.2
